Test: Drug excretion in human urine assessed as retention time treated with [14C]bendamustine at 120 mg/m'2, iv after 2 hrs by 60 mins LC-LSC-MSn method
Type: ADME, organism-based
# note: exactly 30 min is not below, so it is Criterion not met; use Criterion met for Retention_time strictly under it

Cn1c(CCCC(=O)O)nc2ccc(N(CCCl)CCSCC(N)C(=O)O)cc21 (stereo not given); Criterion met
O=C(O)CCC(O)c1nc2ccc(N(CCCl)CCCl)cc2[nH]1 (stereo not given); Criterion not met
Cn1c(CCCC(=O)O)nc2ccc(N(CCS)CCCl)cc21; Criterion not met
Cn1c(CCCC(=O)O)nc2ccc(NCC=O)cc21; Criterion met
CC(=O)NC(CSCCN(CCCl)c1ccc2nc(CCCC(=O)O)n(C)c2c1)C(=O)O (stereo not given); Criterion not met
O=C(O)CCCc1nc2ccc(N(CCO)CCO)cc2[nH]1; Criterion met
Cn1c(CCCC(=O)O)nc2ccc(NCCCl)cc21; Criterion met
Cn1c(CCCC(=O)O)nc2ccc(N(CCO)CCOP(=O)(O)O)cc21; Criterion met
Cn1c(C(O)CCC(=O)O)nc2ccc(N(CCO)CCOP(=O)(O)O)cc21 (stereo not given); Criterion met

* * *

Test: Drug excretion in human urine assessed as retention time treated with [14C]bendamustine at 120 mg/m'2, iv after 2 hrs by 180 mins LC-LSC-MSn method
Assay type: ADME, organism-based
endpoint label: Retention_time (min)

Cn1c(C(O)CCC(=O)O)nc2ccc(N(CCCl)CCCl)cc21 (stereo unspecified); 104.5
CN1CC(=O)N=C1NCCN(CCO)c1ccc2nc(CCCC(=O)O)n(C)c2c1; 24.2
Cn1c(CCCC(=O)O)nc2ccc(N(CCO)CCS)cc21; 64.4
Cn1c(CCCC(=O)O)nc2ccc(N(CCO)CCO)cc21; 33.7
Cn1c(CCCC(=O)O)nc2ccc(N(CCS)CCCl)cc21; 99.4
Cn1c(C(O)CCC(=O)O)nc2ccc(NCCCl)cc21 (stereo unspecified); 57.3
Cn1c(CCCC(=O)O)nc2ccc(N(CCO)CCCl)cc21; 82.7
Cn1c(CCCC(=O)O)nc2ccc(N(CCCl)CCSCC(N)C(=O)O)cc21 (stereo unspecified); 73.7
O=C(O)CCCc1nc2ccc(N(CCO)CCO)cc2[nH]1; 18.7
Cn1c(C(O)CCC(=O)O)nc2ccc(N(CCO)CCOP(=O)(O)O)cc21 (stereo unspecified); 14.7
Cn1c(CCCC(=O)O)nc2ccc(NCC=O)cc21; 29.4
Cn1c(CCCC(=O)O)nc2ccc(N(CCO)CCOP(=O)(O)O)cc21; 22
CN1CC(=O)N=C1NCCN(CCCl)c1ccc2nc(CCCC(=O)O)n(C)c2c1; 54.6
Cn1c(CCCC(=O)O)nc2ccc(N(CCCl)CCOP(=O)(O)O)cc21; 70.7
Cn1c(CCCC(=O)O)nc2ccc(N(CCO)CCSCC(N)C(=O)O)cc21 (stereo unspecified); 29
Cn1c(C(O)CCC(=O)O)nc2ccc(N(CCO)CCO)cc21 (stereo unspecified); 23.8
CC(=O)NC(CSCCN(CCCl)c1ccc2nc(CCCC(=O)O)n(C)c2c1)C(=O)O (stereo unspecified); 97.6
Cn1c(CCCC(=O)O)nc2ccc(NCCCl)cc21; 72.5
Cn1c(C(O)CCC(=O)O)nc2ccc(N(CCO)CCSCC(N)C(=O)O)cc21 (stereo unspecified); 19.7
Cn1c(C(O)CCC(=O)O)nc2ccc(N(CCO)CCCl)cc21 (stereo unspecified); 71.3
O=C(O)CCC(O)c1nc2ccc(N(CCCl)CCCl)cc2[nH]1 (stereo unspecified); 105.1
